Target: PRMT5 (Homo sapiens, UniProt O14744)
Construct: purchased Viva (custom protein)
Sequence (O14744 whole entry): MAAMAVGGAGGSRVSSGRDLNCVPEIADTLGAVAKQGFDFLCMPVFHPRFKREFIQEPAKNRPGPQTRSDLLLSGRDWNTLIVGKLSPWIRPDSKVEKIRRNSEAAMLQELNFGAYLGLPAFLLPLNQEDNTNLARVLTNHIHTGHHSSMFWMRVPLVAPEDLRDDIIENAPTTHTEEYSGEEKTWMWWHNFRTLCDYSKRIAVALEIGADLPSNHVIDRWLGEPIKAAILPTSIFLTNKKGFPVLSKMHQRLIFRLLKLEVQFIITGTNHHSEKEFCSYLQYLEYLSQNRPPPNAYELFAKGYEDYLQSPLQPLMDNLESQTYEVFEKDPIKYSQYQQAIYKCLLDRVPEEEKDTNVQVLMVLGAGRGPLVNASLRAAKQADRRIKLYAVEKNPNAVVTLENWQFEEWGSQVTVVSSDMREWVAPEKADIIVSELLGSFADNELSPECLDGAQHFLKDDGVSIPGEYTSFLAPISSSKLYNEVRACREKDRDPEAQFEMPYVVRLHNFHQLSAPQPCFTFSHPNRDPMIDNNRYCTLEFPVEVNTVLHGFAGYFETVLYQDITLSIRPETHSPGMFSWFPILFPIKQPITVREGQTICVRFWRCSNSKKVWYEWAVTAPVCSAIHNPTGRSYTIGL
Sequence (Q9BQA1 whole entry partner): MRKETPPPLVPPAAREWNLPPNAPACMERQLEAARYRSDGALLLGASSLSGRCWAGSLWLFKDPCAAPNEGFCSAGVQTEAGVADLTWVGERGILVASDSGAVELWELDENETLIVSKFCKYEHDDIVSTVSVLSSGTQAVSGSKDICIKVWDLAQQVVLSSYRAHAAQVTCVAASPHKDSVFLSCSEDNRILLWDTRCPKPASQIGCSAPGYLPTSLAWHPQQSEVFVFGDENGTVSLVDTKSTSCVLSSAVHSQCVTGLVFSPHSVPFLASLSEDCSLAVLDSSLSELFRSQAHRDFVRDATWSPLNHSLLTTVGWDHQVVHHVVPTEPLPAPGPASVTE
Assay: PRMT5 biochemical IC50 assay with SAM as cofactor
Conditions: PRMT5, SAM as cofactor; read-out: SAM IC50
pIC50: −log10 of the molar value.
Entries and their pIC50

>  <molecule>
Cc1cc(NC(=O)C(=O)N2C[C@@H](C)CC[C@@H]2c2ccc3sc([C@H]4CCN(C)C(C)(C)C4)nc3c2)cnc1C (racemic) [Compound 1113]

>  <pIC50>
> 7.30

$$$$
>  <molecule>
COc1ncc(NC(=O)C(=O)N2C[C@@H](C)CC[C@@H]2c2ccc3sc(CCN(C)C)nc3c2)cc1C(N)=O (single isomer, unassigned) [Compound 1146]

>  <pIC50>
> 7.30

$$$$
>  <molecule>
CCc1cc(NC(=O)C(=O)N2C[C@@H](C)CC[C@@H]2c2ccn3cc(C4CCN(C)CC4)nc3c2)cnc1N [Compound 1274]

>  <pIC50>
6.30 to 7.30

$$$$
>  <molecule>
COc1ncc(NC(=O)C(=O)N2C[C@@H](C)CC[C@@H]2c2ccn(-c3cc[nH]n3)n2)cc1C(N)=O (single isomer, unassigned) [Compound 881]

>  <pIC50>
< 6.30

$$$$
>  <molecule>
Cc1cc(NC(=O)C(=O)N2C[C@H](C)CC[C@H]2c2cc(F)cc(F)c2)cnc1N (single isomer, unassigned) [Compound 712]

>  <pIC50>
< 6.30

$$$$

// next entry
Please look up its pIC50: COc1ncc(NC(=O)C(=O)N2C[C@H](C)C(F)(F)C[C@H]2c2ccc(F)cc2)cc1C(N)=O (single isomer, unassigned) [Compound 1068]
6.30 to 7.30
